// provenance: patent US7423068B2

test system: free-running adult mites; conditions: 40 μl pure compound on filter paper, exposure time 1 hr; S.E. ± 0 unless noted
observedProperty: Average % Mortality ± S.E. Treatment (%)
Value expressed in %; do not type the unit.

Example entries begin here.
CCC(C)=O [2-Butanone] = 87.5
C=C(C)C1CC=C(C)CC1 (single isomer, unassigned; (+)) [d-Limonene, (+)-4-isopropenyl-1-methyl-1-cyclohexene] = 5.0
CC(C)=O [Acetone] = 48

Looking for the measured Average % Mortality ± S.E. Treatment of O=Cc1ccccc1 [Benzaldehyde] , can you help?
55

---

Each entry below lists one item and its recorded Average % Mortality ± S.E. Treatment value.
system: free-running adult mites; conditions: 40 μl pure compound on filter paper, exposure time 2 hrs; S.E. ± 0 unless noted
Kindly provide the numeric value in % only, without the unit symbol.

C=C(C)C1CC=C(C)CC1 (single isomer, unassigned; (+)) [d-Limonene, (+)-4-isopropenyl-1-methyl-1-cyclohexene] = 55.0
CCC(C)=O [2-Butanone] = 77.3

Missing value: Average % Mortality ± S.E. Treatment, free-running adult mites, entry CC(C)=O [Acetone] . Fill in?
81.2

Requested read-out Average % Mortality ± S.E. Treatment, target or system free-running adult mites, entry O=Cc1ccccc1 [Benzaldehyde]
100
